Source listed as paper PMC8973350.

Target under test: hCA II (Homo sapiens, UniProt P00918)
Assay overview: stopped flow CO2 hydrase assay, hCA II
Format: biochemical
Condition summary: stopped flow CO2 hydrase assay; errors ±5–10% of the stated values
Measured endpoint: Ki (nM)

Consider the worked cases shown below.
>  <Smiles record>
NS(=O)(=O)c1cccc(Nc2ncnc3ccc(Br)cc23)c1

>  <Ki, nM>
5760

$$$$
>  <Smiles record>
NS(=O)(=O)c1cccc(Nc2ncnc3ccc(-c4ccc(C=O)o4)cc23)c1

>  <Ki, nM>
2420

$$$$

1. NS(=O)(=O)c1cccc(Nc2ncnc3cc(-c4cccc(O)c4)ccc23)c1
2. NS(=O)(=O)c1ccc(Nc2ncnc3ccc(-c4ccc(N5CCOCC5)cc4)cc23)cc1
stdin: # min-compare on Ki between 1 and 2 Reply with the label of the item you choose.
stdout: 2

====

Target under test: UniProtKB O43570
Sequence (O43570 25-354): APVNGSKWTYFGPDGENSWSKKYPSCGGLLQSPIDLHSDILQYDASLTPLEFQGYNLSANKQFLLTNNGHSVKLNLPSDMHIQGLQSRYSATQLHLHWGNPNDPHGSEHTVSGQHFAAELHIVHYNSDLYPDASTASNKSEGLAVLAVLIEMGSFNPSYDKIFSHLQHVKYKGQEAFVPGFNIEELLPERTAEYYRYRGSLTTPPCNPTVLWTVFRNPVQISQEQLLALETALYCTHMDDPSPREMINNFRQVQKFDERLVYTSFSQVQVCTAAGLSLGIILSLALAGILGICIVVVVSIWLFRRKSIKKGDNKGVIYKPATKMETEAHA
Assay overview: stopped flow CO2 hydrase assay, hCA XII
Type: biochemical
Condition summary: errors ±5–10% of the stated values
Measured endpoint: Ki (nM)

Consider the worked cases shown below.
>  <Molecule>
NS(=O)(=O)c1cccc(Nc2ncnc3ccc(-c4ccc(C=O)o4)cc23)c1 [Compound 4i]

>  <Recorded result>
52.7

$$$$
>  <Molecule>
NS(=O)(=O)c1cccc(Nc2ncnc3ccc(-c4ccccc4)cc23)c1 [Compound 4l]

>  <Recorded result>
89.4

$$$$
>  <Molecule>
NS(=O)(=O)c1ccc(Nc2ncnc3ccc(-c4ccc(N5CCOCC5)cc4)cc23)cc1 [Compound 4h]

>  <Recorded result>
49.8

$$$$
>  <Molecule>
NS(=O)(=O)c1ccc(Nc2ncnc3cc(-c4cccc(O)c4)ccc23)cc1 [Compound 4j]

>  <Recorded result>
66.7

$$$$
>  <Molecule>
NS(=O)(=O)c1ccc(Nc2ncnc3ccc(-c4ccc(C=O)cc4)cc23)cc1 [Compound 4b]

>  <Recorded result>
67.4

$$$$
>  <Molecule>
NS(=O)(=O)c1ccc(Nc2ncnc3ccc(-c4cccc([N+](=O)[O-])c4)cc23)cc1 [Compound 4d]

>  <Recorded result>
90.7

$$$$
>  <Molecule>
COc1ccc(-c2ccc3ncnc(Nc4ccc(S(N)(=O)=O)cc4)c3c2)cc1 [Compound 4e]

>  <Recorded result>
77

$$$$
>  <Molecule>
NS(=O)(=O)c1ccc(Nc2ncnc3ccc(-c4ccccc4)cc23)cc1 [Compound 4a]

>  <Recorded result>
65.7

$$$$

A. NS(=O)(=O)c1cccc(Nc2ncnc3ccc(Br)cc23)c1 [Compound 3b]
B. NS(=O)(=O)c1ccc(Nc2ncnc3ccc(-c4ccc(F)cc4)cc23)cc1 [Compound 4c]
stdin: API: POST /compare with A and B ; response names the item with higher Ki. Reply with the label of the item you choose.
stdout: B
(B: 93 nM, A: 39.4 nM)

A. NS(=O)(=O)c1ccc(Nc2ncnc3ccc(Br)cc23)cc1 [Compound 3a]
B. NS(=O)(=O)c1ccc(Nc2ncnc3ccc(-c4ccsc4)cc23)cc1 [Compound 4f]
stdin: API: POST /compare with A and B ; response names the item with higher Ki. Reply with the label of the item you choose.
stdout: B

P. NS(=O)(=O)c1cccc(Nc2ncnc3ccc(-c4ccc(F)cc4)cc23)c1 [Compound 4g]
Q. NS(=O)(=O)c1cccc(Nc2ncnc3cc(-c4cccc(O)c4)ccc23)c1 [Compound 4k]
stdin: API: POST /compare with P and Q ; response names the item with higher Ki. Reply with the label of the item you choose.
stdout: Q
(Q: 69.7 nM, P: 30.5 nM)

====

Target under test: hCA IX (Homo sapiens)
Assay overview: stopped flow CO2 hydrase assay, hCA IX
Type: biochemical
Condition summary: errors ±5–10% of the stated values
Measured endpoint: Ki (nM)

>  <Smiles record>
NS(=O)(=O)c1ccc(Nc2ncnc3cc(-c4cccc(O)c4)ccc23)cc1

>  <Recorded result>
245

$$$$

a. NS(=O)(=O)c1cccc(Nc2ncnc3ccc(-c4ccc(C=O)o4)cc23)c1
b. NS(=O)(=O)c1ccc(Nc2ncnc3ccc(Br)cc23)cc1
stdin: API: POST /compare with a and b ; response names the item with higher Ki. Reply with the label of the item you choose.
stdout: a
(a: 488 nM, b: 174 nM)

====

Target under test: hCA II (Homo sapiens)
Assay overview: stopped flow CO2 hydrase assay, hCA II
Assay type: biochemical
Condition summary: stopped flow CO2 hydrase assay; errors ±5–10% of the stated values
Measured endpoint: Ki (nM)

Consider the worked cases shown below.
>  <Smiles record>
NS(=O)(=O)c1ccc(Nc2ncnc3ccc(-c4ccc(F)cc4)cc23)cc1

>  <Ki, nM>
47.1

$$$$
>  <Smiles record>
NS(=O)(=O)c1ccc(Nc2ncnc3cc(-c4cccc(O)c4)ccc23)cc1

>  <Ki, nM>
66.3

$$$$
>  <Smiles record>
NS(=O)(=O)c1cccc(Nc2ncnc3ccc(-c4ccc(F)cc4)cc23)c1

>  <Ki, nM>
231

$$$$
>  <Smiles record>
NS(=O)(=O)c1ccc(Nc2ncnc3ccc(Br)cc23)cc1

>  <Ki, nM>
8.7

$$$$
>  <Smiles record>
NS(=O)(=O)c1ccc(Nc2ncnc3ccc(-c4ccccc4)cc23)cc1

>  <Ki, nM>
2.4

$$$$

I. NS(=O)(=O)c1ccc(Nc2ncnc3ccc(-c4ccsc4)cc23)cc1
II. NS(=O)(=O)c1ccc(Nc2ncnc3ccc(-c4cccc([N+](=O)[O-])c4)cc23)cc1
stdin: API: POST /compare with I and II ; response names the item with higher Ki. Reply with the label of the item you choose.
stdout: II

1. NS(=O)(=O)c1cccc(Nc2ncnc3ccc(-c4ccccc4)cc23)c1
2. COc1ccc(-c2ccc3ncnc(Nc4ccc(S(N)(=O)=O)cc4)c3c2)cc1
stdin: API: POST /compare with 1 and 2 ; response names the item with higher Ki. Reply with the label of the item you choose.
stdout: 1

====

Target under test: hCA I (Homo sapiens)
Sequence (P00915 whole entry): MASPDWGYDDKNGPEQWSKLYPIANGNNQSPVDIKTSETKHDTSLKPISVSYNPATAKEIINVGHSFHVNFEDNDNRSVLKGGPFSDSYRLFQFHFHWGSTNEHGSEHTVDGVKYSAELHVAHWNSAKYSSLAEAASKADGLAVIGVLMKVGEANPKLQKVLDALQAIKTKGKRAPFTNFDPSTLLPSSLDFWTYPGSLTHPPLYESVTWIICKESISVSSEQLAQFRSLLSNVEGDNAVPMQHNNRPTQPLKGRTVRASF
Assay overview: stopped flow CO2 hydrase assay, hCA I
Format: biochemical
Condition summary: stopped flow CO2 hydrase assay; errors ±5–10% of the stated values
Measured endpoint: Ki (nM)

Consider the worked cases shown below.
>  <Molecule>
NS(=O)(=O)c1cccc(Nc2ncnc3ccc(-c4ccc(C=O)o4)cc23)c1 [Compound 4i]

>  <Target under test>
hCA I (Homo sapiens)

>  <Ki (nM)>
5580

$$$$
>  <Molecule>
NS(=O)(=O)c1ccc(Nc2ncnc3ccc(-c4ccccc4)cc23)cc1 [Compound 4a]

>  <Target under test>
hCA I (Homo sapiens)

>  <Ki (nM)>
600

$$$$

I. NS(=O)(=O)c1cccc(Nc2ncnc3cc(-c4cccc(O)c4)ccc23)c1 [Compound 4k]
II. NS(=O)(=O)c1cccc(Nc2ncnc3ccc(-c4ccc(F)cc4)cc23)c1 [Compound 4g]
stdin: # min-compare on Ki between I and II Reply with the label of the item you choose.
stdout: II

====

Target under test: hCA IX (Homo sapiens, UniProt Q16790)
Assay overview: stopped flow CO2 hydrase assay, hCA IX
Format: biochemical
Condition summary: errors ±5–10% of the stated values
Method: The activity of the CA-catalyzed CO2 hydration reaction was evaluated employing an applied photophysics stopped-flow instrument. […] A minimum of six traces of the starting 5–10% of the reaction were analysed to measure the initial velocity for each inhibitor. In a similar manner, the uncatalyzed rates were evaluated and subtracted from the overall calculated rates. […]
Measured endpoint: Ki (nM)

Consider the worked cases shown below.
>  <Smiles record>
NS(=O)(=O)c1ccc(Nc2ncnc3ccc(-c4ccc(C=O)cc4)cc23)cc1

>  <Unit>
nM

>  <Ki>
86.9

$$$$
>  <Smiles record>
NS(=O)(=O)c1cccc(Nc2ncnc3cc(-c4cccc(O)c4)ccc23)c1

>  <Unit>
nM

>  <Ki>
90.3

$$$$
>  <Smiles record>
NS(=O)(=O)c1ccc(Nc2ncnc3ccc(-c4ccsc4)cc23)cc1

>  <Unit>
nM

>  <Ki>
86.5

$$$$
>  <Smiles record>
NS(=O)(=O)c1ccc(Nc2ncnc3ccc(-c4ccccc4)cc23)cc1

>  <Unit>
nM

>  <Ki>
180

$$$$
>  <Smiles record>
NS(=O)(=O)c1cccc(Nc2ncnc3ccc(-c4ccc(F)cc4)cc23)c1

>  <Unit>
nM

>  <Ki>
229

$$$$
>  <Smiles record>
NS(=O)(=O)c1cccc(Nc2ncnc3ccc(-c4ccccc4)cc23)c1

>  <Unit>
nM

>  <Ki>
88.8

$$$$

P. NS(=O)(=O)c1ccc(Nc2ncnc3ccc(-c4ccc(N5CCOCC5)cc4)cc23)cc1
Q. NS(=O)(=O)c1ccc(Nc2ncnc3ccc(-c4ccc(F)cc4)cc23)cc1
stdin: # min-compare on Ki between P and Q Reply with the label of the item you choose.
stdout: P
(P: 337 nM, Q: 560 nM)

====

Target under test: hCA I (Homo sapiens)
Assay overview: stopped flow CO2 hydrase assay, hCA I
Assay type: biochemical
Condition summary: stopped flow CO2 hydrase assay; errors ±5–10% of the stated values
Measured endpoint: Ki (nM)

>  <Smiles record>
NS(=O)(=O)c1ccc(Nc2ncnc3ccc(Br)cc23)cc1

>  <Measured endpoint>
Ki

>  <Recorded result>
89.4

$$$$

I. NS(=O)(=O)c1cccc(Nc2ncnc3ccc(-c4ccccc4)cc23)c1
II. NS(=O)(=O)c1ccc(Nc2ncnc3ccc(-c4ccc(C=O)cc4)cc23)cc1
stdin: API: POST /compare with I and II ; response names the item with higher Ki. Reply with the label of the item you choose.
stdout: I
(I: 6570 nM, II: 651 nM)

I. NS(=O)(=O)c1ccc(Nc2ncnc3ccc(-c4cccc([N+](=O)[O-])c4)cc23)cc1
II. NS(=O)(=O)c1cccc(Nc2ncnc3ccc(Br)cc23)c1
stdin: API: POST /compare with I and II ; response names the item with higher Ki. Reply with the label of the item you choose.
stdout: II
